Target: C5a anaphylatoxin chemotactic receptor 1 (Homo sapiens)
Sequence (P21730 whole entry): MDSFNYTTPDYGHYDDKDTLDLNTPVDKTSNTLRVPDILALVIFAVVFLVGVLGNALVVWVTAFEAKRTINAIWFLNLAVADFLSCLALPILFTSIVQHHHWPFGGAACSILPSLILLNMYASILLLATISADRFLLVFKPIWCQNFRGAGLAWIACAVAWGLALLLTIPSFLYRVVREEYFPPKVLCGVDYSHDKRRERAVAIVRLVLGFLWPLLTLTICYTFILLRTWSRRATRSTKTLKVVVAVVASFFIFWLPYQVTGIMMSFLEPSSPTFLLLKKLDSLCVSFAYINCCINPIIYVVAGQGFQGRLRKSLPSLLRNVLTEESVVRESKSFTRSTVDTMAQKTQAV
Experiment: FLIPR Assay: Compounds were tested for their ability to inhibit C5a-mediated calcium mobilization using a stable cell line over expressing the human C5aR & the Galpha 15 protein on the FLIPR (Fluorescent Imaging Plate Reader) Tetra system. Cells were maintained in culture media containing DMEM (Dulbecco's Modified Eagle Medium) with 4.5 g/L glucose, 10% fetal bovine serum, 100 U/mL, 1x non-essential amino acid, and 250 ug/mL G418 (Geneticin). Prior to testing of compounds, cells were plated at 10,000 cells/well in clear bottom 384-well black plate, and incubated overnight at 37C. with 5% CO2. On the day of experiment, culture media was removed, and replaced with assay buffer HBSS (Hanks' Balanced Salt Solution) with 20 mM HEPES (4-(2-hydroxyethyl)-1-piperazineethanesulfonic acid) and 0.1% BSA (bovine serum albumin) BSA containing calcium 5 dye (Molecular Devices) and 2.5 mM probenecid. After 1 hour incubation at 37C., 5% CO2 for 60 min, cells were pre-incubated with compounds for 30 minutes.
Value type: pIC50
API: returns pIC50 as number; meaning -log10 of concentration in mol/L.

CO[C@H]1CCN(c2nc(-c3c(Cl)cnc4[nH]ccc34)nc3c2CN(c2cc(C4CC4)ccc2C)CC3)CC1(C)C
7.33

// moving on: another record for pIC50
Request: Endpoint output: pIC50 of CO[C@@H]1CCN(c2nc(-c3c(C)ccc4[nH]nc(C)c34)nc3c2CN(c2c(Cl)c(C(C)C)nn2C)CC3)[C@H](C)C1 . Value?
Response: 8.70
